Assay: Plasma concentration (pharmacokinetics) after single oral dose in humans
Format: in vivo, human
Conditions: male, human, plasma, po, 30 mg, 3, 10 and 30 mg single oral doses; read-out: t1/2, minimum to maximum across the three doses
measurement-name: half-life

Lab book: half-life of O=C(O)c1nc2ccccc2n([C@H]2C[C@H]3CCC[C@@H](C2)N3C2CC3CCCC(C3)C2)c1=O (stereo partly shown) noted as 2.1 to 3.2 h

----------
Assay: in vivo
Settings: male, Crl, CD(SD), rat, brain homogenate and plasma, intravenous, 0.5 mg/kg
measurement-name: Kp at 30 min
Form field (numeric): enter value without unit.

Lab book: Kp at 30 min of C[C@@H]1C[C@@H]2C[C@H](C1)C[C@@H](N1[C@@H]3CCC[C@H]1C[C@@H](n1c(=O)c(C(=O)O)nc4ccccc41)C3)C2 [Compound 405K] noted as 0
